Where do the numbers come from? From ChEMBL document CHEMBL1128374.

- Species: Mus musculus
- Protocol Summary: In vitro inhibition of interleukin-2 (IL-2) production induced by stimulating lymphocytes derived from mouse spleens with the […]
- Type: functional
- Condition: Spleen
Quantity Name: IC50 (µg/mL)
# value in µg/mL; strip the unit string

>>> experimental_result("C/C=C/C[C@@H](C)[C@@H](O)[C@H]1C(=O)N[C@@H](CC)C(=O)N(C)CC(=O)N(C)[C@@H](CC(C)C)C(=O)N[C@@H](C(C)C)C(=O)N(C)[C@@H](CC(C)C)C(=O)N[C@@H](C)C(=O)N2CCOC[C@@H]2C(=O)N(C)[C@@H](CC(C)C)C(=O)N(C)[C@@H](CC(C)C)C(=O)N(C)[C@@H](C(C)C)C(=O)N1C")
0.003
>>> experimental_result("C/C=C/C[C@@H](C)[C@@H](O)[C@H]1C(=O)N[C@@H](CC)C(=O)N(C)CC(=O)N(C)[C@@H](CC(C)C)C(=O)N[C@@H](C(C)C)C(=O)N(C)[C@@H](CC(C)C)C(=O)N[C@@H](C)C(=O)N[C@H](COCCOS(=O)(=O)c2ccc(C)cc2)C(=O)N(C)[C@@H](CC(C)C)C(=O)N(C)[C@@H](CC(C)C)C(=O)N(C)[C@@H](C(C)C)C(=O)N1C")
0.014
>>> experimental_result("C/C=C/C[C@@H](C)[C@@H](O)[C@H]1C(=O)N[C@@H](CC)C(=O)N(C)CC(=O)N(C)[C@@H](CC(C)C)C(=O)N[C@@H](C(C)C)C(=O)N(C)[C@@H](CC(C)C)C(=O)N[C@@H](C)C(=O)N[C@H](COCCOCCO)C(=O)N(C)[C@@H](CC(C)C)C(=O)N(C)[C@@H](CC(C)C)C(=O)N(C)[C@@H](C(C)C)C(=O)N1C")
0.075
>>> experimental_result("C=C(CO)COC[C@H]1NC(=O)[C@H](C)NC(=O)[C@H](CC(C)C)N(C)C(=O)[C@H](C(C)C)NC(=O)[C@H](CC(C)C)N(C)C(=O)CN(C)C(=O)[C@H](CC)NC(=O)[C@H]([C@H](O)[C@H](C)C/C=C/C)N(C)C(=O)[C@H](C(C)C)N(C)C(=O)[C@H](CC(C)C)N(C)C(=O)[C@H](CC(C)C)N(C)C1=O")
0.048
>>> experimental_result("C=C1COC[C@@H]2C(=O)N(C)[C@@H](CC(C)C)C(=O)N(C)[C@@H](CC(C)C)C(=O)N(C)[C@@H](C(C)C)C(=O)N(C)[C@@H]([C@H](O)[C@H](C)C/C=C/C)C(=O)N[C@@H](CC)C(=O)N(C)CC(=O)N(C)[C@@H](CC(C)C)C(=O)N[C@@H](C(C)C)C(=O)N(C)[C@@H](CC(C)C)C(=O)N[C@@H](C)C(=O)N2C1")
0.012
>>> experimental_result("C=CCOC[C@H]1NC(=O)[C@H](C)NC(=O)[C@H](CC(C)C)N(C)C(=O)[C@H](C(C)C)NC(=O)[C@H](CC(C)C)N(C)C(=O)CN(C)C(=O)[C@H](CC)NC(=O)[C@H]([C@H](O)[C@H](C)C/C=C/C)N(C)C(=O)[C@H](C(C)C)N(C)C(=O)[C@H](CC(C)C)N(C)C(=O)[C@H](CC(C)C)N(C)C1=O")
0.115
>>> experimental_result("C/C=C/C[C@@H](C)[C@@H](O)[C@H]1C(=O)N[C@@H](CC)C(=O)N(C)CC(=O)N(C)[C@@H](CC(C)C)C(=O)N[C@@H](C(C)C)C(=O)N(C)[C@@H](CC(C)C)C(=O)N[C@@H](C)C(=O)N[C@H](COCC(C)CO)C(=O)N(C)[C@@H](CC(C)C)C(=O)N(C)[C@@H](CC(C)C)C(=O)N(C)[C@@H](C(C)C)C(=O)N1C (some centres not stated)")
0.017
>>> experimental_result("C/C=C/C[C@@H](C)[C@@H](O)[C@H]1C(=O)N[C@@H](CC)C(=O)N(C)CC(=O)N(C)[C@@H](CC(C)C)C(=O)N[C@@H](C(C)C)C(=O)N(C)[C@@H](CC(C)C)C(=O)N[C@@H](C)C(=O)N[C@H](COCC(=O)O)C(=O)N(C)[C@@H](CC(C)C)C(=O)N(C)[C@@H](CC(C)C)C(=O)N(C)[C@@H](C(C)C)C(=O)N1C")
0.53

Now for a further compound.
input: Recorded IC50 of C/C=C/C[C@@H](C)[C@@H](O)[C@H]1C(=O)N[C@@H](CC)C(=O)N(C)CC(=O)N(C)[C@@H](CC(C)C)C(=O)N[C@@H](C(C)C)C(=O)N(C)[C@@H](CC(C)C)C(=O)N[C@@H](C)C(=O)N[C@H](COCC(N)=O)C(=O)N(C)[C@@H](CC(C)C)C(=O)N(C)[C@@H](CC(C)C)C(=O)N(C)[C@@H](C(C)C)C(=O)N1C , please.
output: 0.07
